target: Hexose transporter 1 (Plasmodium falciparum); experiment: ST_JUDE_LEISH: Cytotoxicity at 2uM final concentration against transgenic Leishmania Mexicana promastigotes LmPfHT that are glucose transport deficient and complemented with the Plasmodium falciparum hexose transporter. Activity is measured by DNA content using SYBR green in vitro; type: functional
Below, each entry is listed alongside its reported inhibition.
Output spec: scalar in %, unitless text.

| compound | inhibition / % |
| --- | --- |
| Cc1ccc(Nc2nc(C)cc(N3CCN(CCc4ccccc4)CC3)n2)cc1 | 3.31 |
| Oc1c(C(Nc2ccccn2)c2ccco2)cc(Cl)c2cccnc12 (stereo not given) | 1.24 |
| O=C(Nc1ccc(Cl)c(Cl)c1)N1CCC(NCc2cccc([N+](=O)[O-])c2)CC1 | 1.1 |
| CCCCCCCc1c(C)nc2cccc(OC)c2c1O | 59.4 |

We next turn to a different compound, shown below.
Kindly note the recorded inhibition for O=C(/C=C/c1ccc(Cl)c(Cl)c1)NCCCCCN1CCC(NC(=O)c2ccc(F)c(F)c2)CC1 , which is 5.17

Origin of values: ChEMBL document CHEMBL3433997
